target of assay: PI3kβ (Homo sapiens, UniProt P42338)
Sequence (P42338 whole entry): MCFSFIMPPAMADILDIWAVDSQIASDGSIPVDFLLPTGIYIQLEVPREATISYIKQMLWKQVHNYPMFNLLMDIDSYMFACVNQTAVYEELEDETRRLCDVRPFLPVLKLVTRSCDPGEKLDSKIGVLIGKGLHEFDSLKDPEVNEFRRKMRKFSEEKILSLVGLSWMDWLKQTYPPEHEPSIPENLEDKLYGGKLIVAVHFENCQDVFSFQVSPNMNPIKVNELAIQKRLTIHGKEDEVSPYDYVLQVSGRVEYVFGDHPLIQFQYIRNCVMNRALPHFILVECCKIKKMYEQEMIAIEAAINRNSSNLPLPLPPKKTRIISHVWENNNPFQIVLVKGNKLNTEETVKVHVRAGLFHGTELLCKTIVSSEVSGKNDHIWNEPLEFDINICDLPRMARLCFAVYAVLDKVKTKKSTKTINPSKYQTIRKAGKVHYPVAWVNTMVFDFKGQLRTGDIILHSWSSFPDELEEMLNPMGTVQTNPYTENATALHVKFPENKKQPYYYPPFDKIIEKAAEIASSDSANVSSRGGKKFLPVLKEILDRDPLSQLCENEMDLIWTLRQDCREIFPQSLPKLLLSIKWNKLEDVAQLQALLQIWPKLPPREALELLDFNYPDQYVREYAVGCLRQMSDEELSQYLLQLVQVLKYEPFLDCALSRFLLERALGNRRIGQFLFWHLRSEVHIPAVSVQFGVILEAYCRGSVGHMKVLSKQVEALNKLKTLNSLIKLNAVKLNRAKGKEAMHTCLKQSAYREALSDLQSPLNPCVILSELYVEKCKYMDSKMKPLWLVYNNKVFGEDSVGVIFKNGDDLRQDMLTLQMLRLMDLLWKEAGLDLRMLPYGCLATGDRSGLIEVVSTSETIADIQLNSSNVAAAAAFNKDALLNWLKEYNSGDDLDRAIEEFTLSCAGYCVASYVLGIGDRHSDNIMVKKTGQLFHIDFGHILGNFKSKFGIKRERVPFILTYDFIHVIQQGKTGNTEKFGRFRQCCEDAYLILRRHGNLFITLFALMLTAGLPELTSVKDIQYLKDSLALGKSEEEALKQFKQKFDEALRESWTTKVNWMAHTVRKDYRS
Sequence (P27986 whole entry partner): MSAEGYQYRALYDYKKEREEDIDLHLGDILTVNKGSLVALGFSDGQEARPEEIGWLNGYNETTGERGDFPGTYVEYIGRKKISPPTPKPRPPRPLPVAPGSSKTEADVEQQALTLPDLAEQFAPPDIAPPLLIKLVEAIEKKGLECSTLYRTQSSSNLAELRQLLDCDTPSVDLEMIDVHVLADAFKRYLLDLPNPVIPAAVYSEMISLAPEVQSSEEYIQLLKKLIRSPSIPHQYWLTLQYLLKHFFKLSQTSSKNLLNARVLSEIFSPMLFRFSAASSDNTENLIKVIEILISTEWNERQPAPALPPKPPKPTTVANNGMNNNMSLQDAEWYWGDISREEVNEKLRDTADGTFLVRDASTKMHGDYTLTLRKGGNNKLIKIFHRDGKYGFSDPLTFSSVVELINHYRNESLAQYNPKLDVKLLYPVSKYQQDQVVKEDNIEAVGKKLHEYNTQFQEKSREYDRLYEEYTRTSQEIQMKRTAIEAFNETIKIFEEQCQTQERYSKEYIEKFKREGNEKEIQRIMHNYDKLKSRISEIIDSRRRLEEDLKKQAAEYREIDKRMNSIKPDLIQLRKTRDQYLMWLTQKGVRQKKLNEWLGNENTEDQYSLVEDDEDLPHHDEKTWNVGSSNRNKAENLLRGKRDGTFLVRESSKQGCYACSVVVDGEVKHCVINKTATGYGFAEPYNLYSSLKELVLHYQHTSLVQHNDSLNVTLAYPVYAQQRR
assay: Fluorescent (HTRF) determination of PI3 kinase enzyme activity, PI3Kβ
Assay type: biochemical
experimental context: 1 uM
measurement type: inhibition at 1 µM

Examples from the recorded data:
{"columns": ["molecule", "target of assay", "inhibition at 1 µM"],
 "data": [
  ["CC(C)Oc1ccc(-c2nn(C(C)c3oc4cccc(F)c4c(=O)c3-c3cccc(F)c3)c3ncnc(N)c23)cc1F (single isomer, unassigned; (+)) [Example 7]", "PI3kβ (Homo sapiens, UniProt P42338)", "50 to 75%"],
  ["CC(C)NS(=O)(=O)c1ccc(-c2nn(C(C)c3oc4cccc(F)c4c(=O)c3-c3cccc(F)c3)c3ncnc(N)c23)cc1 (stereo not drawn)", "PI3kβ (Homo sapiens, UniProt P42338)", "50 to 75%"],
  ["CC(c1oc2cccc(F)c2c(=O)c1-c1cccc(F)c1)n1ncc2c(N(C)C)ncnc21 (stereo not drawn)", "PI3kβ (Homo sapiens, UniProt P42338)", "25 to 50%"],
  ["CC(c1oc2cccc(F)c2c(=O)c1-c1cccc(F)c1)n1nc(-c2ccc(OC3CCOCC3)c(F)c2)c2c(N)ncnc21 (stereo not drawn)", "PI3kβ (Homo sapiens, UniProt P42338)", "25 to 50%"]
]}

Quick one: inhibition at 1 µM of CC(c1oc2cccc(F)c2c(=O)c1-c1ccc(F)cc1)n1nc(-c2ccc(OC(F)F)c(F)c2)c2c(N)ncnc21 (single isomer, unassigned) [Example 97] ? 25 to 50%

Quick one: inhibition at 1 µM of CC(c1oc2cccc(F)c2c(=O)c1-c1ccccc1)n1nc(-c2ccc(OC(F)F)c(F)c2)c2c(N)ncnc21 (racemic) ? 50 to 75%

----------
Each entry below carries its reported inhibition at 0.3 µM.
target of assay: PI3kδ (Homo sapiens, UniProt O00329)
Sequence (O00329 whole entry): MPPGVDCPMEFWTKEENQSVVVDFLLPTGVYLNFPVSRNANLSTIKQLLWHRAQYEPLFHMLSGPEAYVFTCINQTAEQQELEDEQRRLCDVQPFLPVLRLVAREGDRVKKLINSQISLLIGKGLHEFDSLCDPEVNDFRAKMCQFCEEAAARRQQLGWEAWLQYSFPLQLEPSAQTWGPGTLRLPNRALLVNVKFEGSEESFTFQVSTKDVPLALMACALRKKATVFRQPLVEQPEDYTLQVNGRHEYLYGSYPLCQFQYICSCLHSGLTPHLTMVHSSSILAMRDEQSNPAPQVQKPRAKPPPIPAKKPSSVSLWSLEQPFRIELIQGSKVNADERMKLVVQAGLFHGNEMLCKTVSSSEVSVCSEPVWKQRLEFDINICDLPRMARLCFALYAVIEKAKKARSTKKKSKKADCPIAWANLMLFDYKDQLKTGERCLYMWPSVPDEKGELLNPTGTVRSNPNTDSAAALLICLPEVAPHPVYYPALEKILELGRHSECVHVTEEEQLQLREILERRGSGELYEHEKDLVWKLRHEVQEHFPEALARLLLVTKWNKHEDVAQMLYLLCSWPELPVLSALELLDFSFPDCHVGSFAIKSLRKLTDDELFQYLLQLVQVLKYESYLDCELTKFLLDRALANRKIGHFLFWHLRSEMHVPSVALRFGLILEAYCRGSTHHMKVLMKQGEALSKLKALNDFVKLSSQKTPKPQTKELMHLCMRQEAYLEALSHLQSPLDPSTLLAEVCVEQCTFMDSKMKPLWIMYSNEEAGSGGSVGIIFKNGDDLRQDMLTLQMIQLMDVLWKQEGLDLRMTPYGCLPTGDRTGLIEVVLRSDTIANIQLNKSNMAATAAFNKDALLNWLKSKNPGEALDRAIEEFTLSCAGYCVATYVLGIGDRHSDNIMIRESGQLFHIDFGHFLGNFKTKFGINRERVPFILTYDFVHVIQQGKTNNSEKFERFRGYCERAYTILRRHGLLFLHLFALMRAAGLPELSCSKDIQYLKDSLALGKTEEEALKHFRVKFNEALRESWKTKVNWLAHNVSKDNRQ
Sequence (P27986 whole entry partner): as the sequence (P27986 whole entry partner) above
assay: Fluorescent (HTRF) determination of PI3 kinase enzyme activity, PI3Kδ
Format: biochemical
experimental context: 300 nM (Examples 1-59)

Examples from the recorded data:
{"columns": ["compound", "inhibition at 0.3 µM"],
 "data": [
  ["CC(C)Oc1ccc(-c2nn(C(C)c3oc4cccc(F)c4c(=O)c3-c3ccccc3)c3ncnc(N)c23)cc1F (stereo not shown)", "75 to 100%"],
  ["CC(C)Oc1ccc(-c2nn(C(C)c3oc4cccc(F)c4c(=O)c3-c3cn[nH]c3)c3ncnc(N)c23)cc1F (stereo not shown)", "75 to 100%"],
  ["CC(c1oc2cccc(F)c2c(=O)c1-c1ccc(F)cc1)n1nc(-c2ccc(OC(F)F)c(F)c2)c2c(N)ncnc21 (stereo not shown)", "50 to 75%"],
  ["CC(c1oc2cccc(F)c2c(=O)c1-c1cccc(F)c1)n1nc(N2CCOCC2)c2c(N)ncnc21 (stereo not shown)", "0 to 25%"],
  ["CC(c1oc2cccc(F)c2c(=O)c1-c1cccc(F)c1)n1ncc2c(N(C)C)ncnc21 (stereo not shown)", "50 to 75%"],
  ["CC(c1oc2cccc(F)c2c(=O)c1-c1cccc(F)c1)n1nc(-c2cn[nH]c2)c2c(N)ncnc21 (stereo not shown)", "25 to 50%"]
]}

Now consider the entry below.
Quick one: inhibition at 0.3 µM of CC(c1oc2cccc(F)c2c(=O)c1-c1cccc(F)c1)n1nc(-c2ccc(N3CCN(C)CC3)c(F)c2)c2c(N)ncnc21 (stereo not shown) ? 25 to 50%

----------
target of assay: PI3kα (Homo sapiens)
Sequence (P42336 whole entry): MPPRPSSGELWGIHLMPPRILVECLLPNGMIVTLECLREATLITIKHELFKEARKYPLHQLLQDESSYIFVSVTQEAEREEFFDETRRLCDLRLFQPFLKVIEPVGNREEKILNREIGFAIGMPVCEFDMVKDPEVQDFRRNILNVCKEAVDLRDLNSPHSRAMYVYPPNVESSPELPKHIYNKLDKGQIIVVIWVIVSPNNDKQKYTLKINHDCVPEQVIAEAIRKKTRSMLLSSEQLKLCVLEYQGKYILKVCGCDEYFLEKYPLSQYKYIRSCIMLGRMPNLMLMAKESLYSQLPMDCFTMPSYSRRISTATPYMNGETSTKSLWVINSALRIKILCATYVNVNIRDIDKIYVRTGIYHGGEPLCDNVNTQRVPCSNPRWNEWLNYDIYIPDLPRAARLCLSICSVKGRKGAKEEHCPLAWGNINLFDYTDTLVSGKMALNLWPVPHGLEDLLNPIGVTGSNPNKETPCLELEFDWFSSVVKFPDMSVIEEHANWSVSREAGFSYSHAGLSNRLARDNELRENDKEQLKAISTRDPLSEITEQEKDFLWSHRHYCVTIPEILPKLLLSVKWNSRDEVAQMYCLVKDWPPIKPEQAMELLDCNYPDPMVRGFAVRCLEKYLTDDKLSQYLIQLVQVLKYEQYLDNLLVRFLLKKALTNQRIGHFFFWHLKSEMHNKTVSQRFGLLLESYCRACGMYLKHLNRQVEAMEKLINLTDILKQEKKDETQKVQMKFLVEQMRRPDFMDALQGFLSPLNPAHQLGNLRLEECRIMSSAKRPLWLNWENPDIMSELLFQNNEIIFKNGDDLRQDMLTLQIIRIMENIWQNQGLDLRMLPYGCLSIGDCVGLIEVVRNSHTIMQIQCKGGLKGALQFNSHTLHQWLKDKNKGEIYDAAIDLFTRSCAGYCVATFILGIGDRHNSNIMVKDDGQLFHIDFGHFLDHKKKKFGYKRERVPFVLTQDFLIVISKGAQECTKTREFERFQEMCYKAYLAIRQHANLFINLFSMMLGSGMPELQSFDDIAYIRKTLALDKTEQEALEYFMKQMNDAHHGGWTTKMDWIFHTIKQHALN
Sequence (P27986 whole entry partner): as the sequence (P27986 whole entry partner) above
assay: Fluorescent (HTRF) determination of PI3 kinase enzyme activity, PI3Kα
Format: biochemical
experimental context: 1 uM
measurement type: inhibition at 1 µM

Examples from the recorded data:
{"columns": ["compound", "target of assay", "inhibition at 1 µM"],
 "data": [
  ["CC(c1oc2cccc(F)c2c(=O)c1-c1cccc(F)c1)n1nc(C#CCO)c2c(N)ncnc21 (centres unmarked)", "PI3kα (Homo sapiens)", "25 to 50%"],
  ["CC(c1oc2cccc(F)c2c(=O)c1-c1cccc(F)c1)n1cnc2c(N(C)C)ncnc21 (centres unmarked)", "PI3kα (Homo sapiens)", "0 to 25%"],
  ["CC(Nc1ncnc2[nH]cnc12)c1oc2cccc(F)c2c(=O)c1-c1ccccc1F (centres unmarked)", "PI3kα (Homo sapiens)", "25 to 50%"],
  ["CC(C)C(=O)Nc1ccc(-c2nn(C(C)c3oc4cccc(F)c4c(=O)c3-c3cccc(F)c3)c3ncnc(N)c23)cc1F (centres unmarked)", "PI3kα (Homo sapiens)", "25 to 50%"]
]}

Now consider the entry below.
Quick one: inhibition at 1 µM of CC(c1oc2cccc(F)c2c(=O)c1-c1cccc(F)c1)n1nc(-c2ccc(S(N)(=O)=O)cc2)c2c(N)ncnc21 (centres unmarked) ? 0 to 25%

----------
target of assay: PI3kγ (Homo sapiens, UniProt P48736)
Sequence (P48736 whole entry): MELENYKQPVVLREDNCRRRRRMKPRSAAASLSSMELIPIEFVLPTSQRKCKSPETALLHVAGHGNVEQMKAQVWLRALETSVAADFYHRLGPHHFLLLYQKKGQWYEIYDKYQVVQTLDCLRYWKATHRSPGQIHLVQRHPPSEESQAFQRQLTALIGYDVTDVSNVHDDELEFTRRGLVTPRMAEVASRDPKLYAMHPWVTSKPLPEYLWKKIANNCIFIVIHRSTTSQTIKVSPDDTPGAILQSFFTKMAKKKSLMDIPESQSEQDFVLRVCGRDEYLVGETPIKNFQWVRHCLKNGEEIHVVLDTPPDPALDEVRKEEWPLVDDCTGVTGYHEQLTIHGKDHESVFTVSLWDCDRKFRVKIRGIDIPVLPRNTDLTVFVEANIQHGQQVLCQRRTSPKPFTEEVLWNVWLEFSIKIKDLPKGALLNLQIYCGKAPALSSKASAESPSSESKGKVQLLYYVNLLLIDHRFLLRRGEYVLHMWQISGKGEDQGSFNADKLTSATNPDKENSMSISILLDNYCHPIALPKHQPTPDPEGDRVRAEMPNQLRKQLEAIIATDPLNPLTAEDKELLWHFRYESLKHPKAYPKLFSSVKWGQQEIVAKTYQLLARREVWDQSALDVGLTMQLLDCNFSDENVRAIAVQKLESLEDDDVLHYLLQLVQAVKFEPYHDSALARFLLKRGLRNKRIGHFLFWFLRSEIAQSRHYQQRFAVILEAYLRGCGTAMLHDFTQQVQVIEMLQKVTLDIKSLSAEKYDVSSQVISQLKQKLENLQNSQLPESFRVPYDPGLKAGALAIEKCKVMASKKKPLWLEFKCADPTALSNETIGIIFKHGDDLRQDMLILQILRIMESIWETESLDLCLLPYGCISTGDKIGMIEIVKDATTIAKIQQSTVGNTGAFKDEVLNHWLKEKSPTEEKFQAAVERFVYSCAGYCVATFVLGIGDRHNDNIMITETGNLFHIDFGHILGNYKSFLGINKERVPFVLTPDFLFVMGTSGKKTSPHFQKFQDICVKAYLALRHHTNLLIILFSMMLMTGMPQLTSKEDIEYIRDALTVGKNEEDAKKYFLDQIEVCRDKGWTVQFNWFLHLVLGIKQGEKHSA
assay: Fluorescent (HTRF) determination of PI3 kinase enzyme activity, PI3Kγ
Assay type: biochemical
experimental context: 100 nM (Examples 60-137); 0.1 µM
measurement type: % inhibition (PI3kγ) 100 nM

{"columns": ["compound", "result"],
 "data": [
  ["CC(C)Oc1ccc(-c2nn(C(C)c3oc4cccc(F)c4c(=O)c3-c3cccc(F)c3)c3ncnc(N4CCOCC4)c23)cc1F (racemic) [Example 116]", "D (D=0 to 25%)"],
  ["CC(c1oc2cccc(F)c2c(=O)c1-c1cccc(F)c1)n1nc(-c2ccc(N3CCOCC3)c(Cl)c2)c2c(N)ncnc21 (racemic) [Example 126]", "D (D=0 to 25%)"]
]}

----------
target of assay: PI3kγ (Homo sapiens, UniProt P48736)
assay: Fluorescent (HTRF) determination of PI3 kinase enzyme activity, PI3Kγ
Format: biochemical
experimental context: 300 nM (Examples 1-59)
measurement type: inhibition at 0.3 µM

Examples from the recorded data:
{"columns": ["compound", "measurement type", "result"],
 "data": [
  ["CC(C)Oc1ccc(-c2nn(C(C)c3oc4cccc(F)c4c(=O)c3-c3cn[nH]c3)c3ncnc(N)c23)cc1F (stereo not shown)", "inhibition at 0.3 µM", "50 to 75%"],
  ["CC(c1oc2cccc(F)c2c(=O)c1-c1cccc(F)c1)n1cnc2c(N)ncnc21 (stereo not shown)", "inhibition at 0.3 µM", "25 to 50%"],
  ["CC(c1oc2cccc(F)c2c(=O)c1-c1cccc(F)c1)n1nc(-c2ccc(OC3CN(C(c4ccccc4)c4ccccc4)C3)c(F)c2)c2c(N)ncnc21 (stereo not shown)", "inhibition at 0.3 µM", "25 to 50%"],
  ["CC(c1oc2cccc(F)c2c(=O)c1-c1cccc(F)c1)n1nc(-c2ccc(OC3CCNCC3)c(F)c2)c2c(N)ncnc21 (stereo not shown)", "inhibition at 0.3 µM", "0 to 25%"],
  ["CC(c1oc2cccc(F)c2c(=O)c1-c1cccc(F)c1)n1ncc2c(N)ncnc21 (stereo not shown)", "inhibition at 0.3 µM", "0 to 25%"],
  ["CNS(=O)(=O)c1ccc(-c2nn(C(C)c3oc4cccc(F)c4c(=O)c3-c3cccc(F)c3)c3ncnc(N)c23)cc1 (stereo not shown)", "inhibition at 0.3 µM", "50 to 75%"]
]}

Quick one: inhibition at 0.3 µM of CC(c1oc2cccc(F)c2c(=O)c1-c1cccc(F)c1)n1nc(-c2ccc(S(=O)(=O)NC3CC3)cc2)c2c(N)ncnc21 (stereo not shown) ? 50 to 75%

----------
target of assay: PI3kγ (Homo sapiens, UniProt P48736)
assay: Fluorescent (HTRF) determination of PI3 kinase enzyme activity, PI3Kγ
Type: biochemical
experimental context: 300 nM (Examples 1-59)
Each entry below carries its reported inhibition at 0.3 µM.

Examples from the recorded data:
{"columns": ["compound", "measurement type", "result"],
 "data": [
  ["CC(c1oc2cccc(F)c2c(=O)c1-c1cccc(F)c1)n1nc(-c2ccc(OC(F)F)c(F)c2)c2c(N)ncnc21 (stereo not drawn) [Example 17]", "inhibition at 0.3 µM", "25 to 50%"],
  ["CC(c1oc2cccc(F)c2c(=O)c1-c1cccc(F)c1)n1nc(-c2ccc(OC(F)(F)F)c(F)c2)c2c(N)ncnc21 (stereo not drawn) [Example 45]", "inhibition at 0.3 µM", "25 to 50%"],
  ["CC(C)NC(=O)c1ccc(-c2nn(C(C)c3oc4cccc(F)c4c(=O)c3-c3cccc(F)c3)c3ncnc(N)c23)cc1F (stereo not drawn) [Example 53]", "inhibition at 0.3 µM", "50 to 75%"],
  ["CC(c1oc2cccc(F)c2c(=O)c1-c1cccc(F)c1)n1nc(N(C)C)c2c(N)ncnc21 (stereo not drawn) [Example 38]", "inhibition at 0.3 µM", "0 to 25%"],
  ["CC(c1oc2cccc(F)c2c(=O)c1-c1cccc(F)c1)n1nc(-c2ccc(N3CCN(C)CC3)c(F)c2)c2c(N)ncnc21 (stereo not drawn) [Example 27]", "inhibition at 0.3 µM", "50 to 75%"]
]}

Quick one: inhibition at 0.3 µM of CC(C)NS(=O)(=O)c1ccc(-c2nn(C(C)c3oc4cccc(F)c4c(=O)c3-c3cccc(F)c3)c3ncnc(N)c23)cc1 (stereo not drawn) [Example 56] ? 50 to 75%

Quick one: inhibition at 0.3 µM of Cc1nn(C(C)c2oc3cccc(F)c3c(=O)c2-c2cccc(F)c2)c2ncnc(N)c12 (stereo not drawn) [Example 33] ? 50 to 75%

Quick one: inhibition at 0.3 µM of CC(c1oc2cccc(F)c2c(=O)c1-c1ccccc1)n1ncc2c(N)ncnc21 (stereo not drawn) [Example 29] ? 50 to 75%

Quick one: inhibition at 0.3 µM of CC(c1oc2cccc(F)c2c(=O)c1-c1cccc(F)c1)n1nc(-c2ccc(NCCO)c(F)c2)c2c(N)ncnc21 (stereo not drawn) [Example 22] ? 25 to 50%

Quick one: inhibition at 0.3 µM of CC(c1oc2cccc(F)c2c(=O)c1-c1cccc(F)c1)n1nc(N2CCCC2)c2c(N)ncnc21 (stereo not drawn) [Example 47] ? 0 to 25%

Quick one: inhibition at 0.3 µM of CC(c1oc2cccc(F)c2c(=O)c1-c1cccc(F)c1)n1nc(-c2ccc(CNS(C)(=O)=O)cc2)c2c(N)ncnc21 (stereo not drawn) [Example 55] ? 50 to 75%

Quick one: inhibition at 0.3 µM of CC(c1oc2cccc(F)c2c(=O)c1-c1cccc(F)c1)n1nc(N2CCOCC2)c2c(N)ncnc21 (stereo not drawn) [Example 37] ? 50 to 75%

Quick one: inhibition at 0.3 µM of CC(c1oc2cccc(F)c2c(=O)c1-c1ccc(F)cc1)n1ncc2c(N)ncnc21 (stereo not drawn) [Example 30] ? 0 to 25%

Quick one: inhibition at 0.3 µM of CCc1nn(C(C)c2oc3cccc(F)c3c(=O)c2-c2cccc(F)c2)c2ncnc(N)c12 (stereo not drawn) [Example 34] ? 50 to 75%

Quick one: inhibition at 0.3 µM of CC(C)Oc1ccc(-c2nn(C(C)c3oc4cccc(F)c4c(=O)c3-c3ccccc3)c3ncnc(N)c23)cc1F (stereo not drawn) [Example 13] ? 50 to 75%
